Cited source: PubChem BioAssay (NCI)

TGI listing for selected compounds.
# System: A549 NSCLC
# TEST_DESCRIPTION: NCI tumour cell line growth inhibition, 48 h
PROPERTY_LABEL: TGI

COMPOUND	VALUE_REPORTED
CCOc1cc2c[n+](C)c3c4cc(OC)c(OC)cc4ccc3c2cc1OC	> 100 µM
CCOC(=O)c1cc2c(c3ccsc13)C1(C)CCC3c4ccc(OC)cc4CCC3C1C2 (stereo not given)	> 100 µM
CCOC(=O)C1C(=O)C(C(=O)OCC)C(c2ccccc2)N(C)C1c1ccccc1 (stereo not given)	> 100 µM
S=C1NCN2CCN(CC2)CNC(=S)C(=S)NCN2CCN(CC2)CNC1=S	> 100 µM
CC(C)=CC1CCc2ccccc2N1S(=O)(=O)c1ccc(C)cc1 (stereo not given)	18.9 µM
O=C1OC2C(O)COC2(O)C1(O)Cc1c[nH]c2ccccc12 (stereo not given)	> 100 µM
N#CC(=N)c1ncn(CCO)c1NC(=O)C(F)(F)F	> 100 µM
CCCNC(=O)C(C)(Cl)C(=O)c1ccccc1O (stereo not given)	> 100 µM
O=c1c2cccnc2[nH]c2ccc3[nH]ncc3c12	> 10 µM
Cc1noc(C)c1C1=CCCCc2ccccc21	> 100 µM
O=C1CCC(O)=C1N=Nc1cc(Cl)cc(Cl)c1	> 100 µM
NNC1=N/C(=C\c2ccccc2O)C(=O)N1	> 100 µM
FC(F)(F)c1ccc(-c2cncn2-c2ccccc2)cc1	27.5 µM
O=C(C[Si](CC(=O)c1cccc(C(F)(F)F)c1)CC(=O)c1cccc(C(F)(F)F)c1)c1cccc(C(F)(F)F)c1	11.3 µM
O=c1[nH]c(=S)[nH]c2c1C(c1ccc(Cl)cc1)c1c([nH]c(=S)[nH]c1=O)O2	> 100 µM
CC(C)[Si]1(C(C)C)OCC2OC(N3C(=O)NC(=O)C[C@@H]3C(O)c3ccccc3)CC2O[Si](C(C)C)(C(C)C)O1 (stereo not given in full)	24.1 µM
OC1CC2CCCN(CCc3c1[nH]c1ccccc31)C2 (stereo not given)	> 100 µM
COc1ccc(/C=C/C(=O)c2sc(NC(=S)NC(=O)c3ccccc3F)nc2C)cc1OC	> 100 µM
Cc1nn2c(C(=O)N/N=C/c3ccccc3O)c(C)nc2s1	> 100 µM
C/C=N\n1c(C)n[nH]c1=O	> 100 µM

* * *

# System: NCI/ADR-RES ovarian
# TEST_DESCRIPTION: NCI tumour cell line growth inhibition, 48 h
TGI listing for selected compounds.

COMPOUND	TGI
O=C(O)c1ccccc1CC1Cc2ccccc2C1	> 100 µM
Cc1ccc(C2c3c(n(C)c(=O)n(C)c3=O)OC(N(C)C)(N(C)C)C2(F)F)cc1 (stereo not given)	> 100 µM
NC1CSc2ccccc2NC1=O (stereo not given)	> 100 µM
CO[C@H](C(=O)[C@@H](O)[C@@H](C)O)[C@@H]1Cc2cc3cc(O[C@H]4C[C@@H](O[C@H]5C[C@@H](O)[C@H](O)C(C)O5)[C@H](O)C(C)(O)O4)cc(O)c3c(O)c2C(=O)[C@H]1O[C@H]1C[C@@H](O[C@H]2C[C@@H](O[C@H]3C[C@@H](OC)[C@H](O)C(C)O3)[C@@H](O)C(C)O2)[C@H](O)C(C)O1 (stereo not given in full)	> 16.8 µM
O=C(O)CCCn1c(SCc2c(Cl)cccc2Cl)nc2ccsc2c1=O	> 100 µM
O=c1c2cccnc2[nH]c2ccc3[nH]ncc3c12	> 10 µM
Nc1nc2c(ncn2CC2CCC(CO)C2)c(=O)[nH]1 (stereo not given)	> 100 µM
COC(=O)c1cc2c3c(c1)Oc1cc(C(=O)OC)cc4c1C3c1c(cc(C(=O)OC)cc1O4)O2	13 µM
COc1ccc2nc3cc(Cl)ccc3c(NCCCCCN3CCCCC3)c2c1	4.24 µM
CN(C)CCCN1c2ccccc2CCc2cccc([N+](=O)[O-])c21	32.9 µM
Cc1nc2cc(-n3c(-c4ccc(F)cc4)nc4ccccc4c3=O)ccc2n1Cc1ccccc1	4.56 µM
COC(=O)[C@@H](Cc1ccccc1)NNC(=O)OC(C)(C)C	> 100 µM
CCN(CC)CCN1C=CC(C)C(C(=O)O)C1C(N)=O (stereo not given)	> 100 µM
Cc1ccc(C2=C(c3ccc(C)cc3)C3(c4ccc(C)cc4)[C@@H](C#N)[C@H](C#N)C2(c2ccc(C)cc2)S3=O)cc1 (stereo not given in full)	> 100 µM
CN(C)c1ccc(/C=C/c2ccc3ccccc3[n+]2C)cc1	> 100 µM

* * *

# Tested on: EKVX NSCLC
# TEST_DESCRIPTION: NCI tumour cell line growth inhibition, 48 h; in the data active means GI50 below about 0.43 µM; inactive means the rest
Outcome codes: True = active, False = inactive

MOLECULE	QUALITATIVE_LABEL
CCOC(=O)C1=C(C)N(c2ccc(OC)cc2)C2(O)C=CC(=O)C3C(=O)N(c4ccccc4)C(=O)C132 (stereo unspecified)	False
COc1cccc(/C=N/Nc2ncnc3c2cnn3-c2cccc(OC)c2)c1	False
COc1ccc2c(c1)C(=O)c1c-2n(CCCNCCO)c(=O)c2ccccc12	True
COC(=O)C1=C(O)[C@H](C(=O)OC)C2(O)[C@@H](C(=O)OC)[C@H]1C[C@@H](c1ccc(OC(=O)n3ccnc3)cc1)[C@@H]2C(=O)OC	False
Cc1c2cnccc2c(C)c2c1c1cc(CO)ccc1n2C	True
Cc1c(C(=O)O)n(-c2ccc(Cl)cc2)c2ncnc(N)c12	False

* * *

# System: HOP-62 NSCLC
# TEST_DESCRIPTION: NCI tumour cell line growth inhibition, 48 h
PROPERTY_LABEL: TGI

COMPOUND	VALUE_REPORTED
CCc1n[nH]c(=O)n1NC(=O)CCCC(=O)O	> 100 µM
S=C1NCN2CCN(CC2)CNC(=S)C(=S)NCN2CCN(CC2)CNC1=S	> 100 µM
COc1cc(-c2cc(=O)c3c(OC)c(OC)c(OC)c(OC)c3o2)cc(OC)c1OC	> 100 µM
CNC(=O)N(C1=NCC(C)S1)c1ccc(C)c(C)c1 (stereo unspecified)	> 100 µM
CCCNC(=O)C(C)(Cl)C(=O)c1ccccc1O (stereo unspecified)	> 100 µM
COC1CC(C)(N)C(O)C(C)O1 (stereo unspecified)	> 100 µM
Cn1cnc([N+](=O)[O-])c1[Se]c1ncnc2nc[nH]c12	50.3 µM
COc1cccc(NC(=O)CC(=O)N2NC(c3ccccc3)C(N=Nc3cccc(C(=O)O)c3)C2=O)c1 (stereo unspecified)	> 100 µM
O=c1[nH]c(=S)[nH]c2c1C(c1ccc(Cl)cc1)c1c([nH]c(=S)[nH]c1=O)O2	> 100 µM
COC(=O)CC1C(C)(C)C(=O)C2CC3=C4CC(=O)OC(c5ccoc5)C4(C)CCC3C1(C)C2=O (stereo unspecified)	> 100 µM
CCCCCCc1nn2c(-c3ccncc3)nnc2s1	> 10 µM
CO[C@H](C(=O)[C@@H](O)[C@@H](C)O)[C@@H]1Cc2cc3cc(O[C@H]4C[C@@H](O[C@H]5C[C@@H](O)[C@H](O)C(C)O5)[C@H](O)C(C)(O)O4)cc(O)c3c(O)c2C(=O)[C@H]1O[C@H]1C[C@@H](O[C@H]2C[C@@H](O[C@H]3C[C@@H](OC)[C@H](O)C(C)O3)[C@@H](O)C(C)O2)[C@H](O)C(C)O1 (stereo partly specified)	> 16.8 µM
Cc1noc(C)c1C1=CCCCc2ccccc21	> 100 µM
CN=C(NN)NS(=O)(=O)c1cc(C)c(Cl)cc1S	> 100 µM
O=c1[nH]nc(Cc2ccccc2)n1/N=C\CC/C=N\n1c(Cc2ccccc2)n[nH]c1=O	88.4 µM
CNC(=O)C(C)C1C(=O)/C(=C(O)/C=C\C(C)=C\C(C)C2OC3(C)OC(C=CC34CO4)C2C)C(=O)N1C1CCC(O)C(C)O1 (stereo unspecified)	> 100 µM
O=C(CCN1CCCC1)CC(c1ccccc1)c1c(O)c2ccccc2oc1=O (stereo unspecified)	> 100 µM
CC1=CC2CCC1(C)C/C2=C(/C)OC=O (stereo unspecified)	> 100 µM
O=C(O)C(Cc1c[nH]c2ccccc12)C(=O)NO (stereo unspecified)	> 100 µM
FC(F)(F)c1cccc(Nc2nc3ccccc3nc2Nc2cccc(C(F)(F)F)c2)c1	2.17 µM
CN1CCc2c(sc3ncn(N)c(=N)c23)C1	> 100 µM

* * *

# Tested on: DU-145 prostate
# TEST_DESCRIPTION: NCI tumour cell line growth inhibition, 48 h
TGI listing for selected compounds.
PROPERTY_LABEL: TGI

SMILES	SYSTEM_UNDER_TEST	VALUE_REPORTED
O=C(/C=C/c1ccc(OCCSCCCCCCCCCCSCCOc2ccc(/C=C/C(=O)c3ccc(Cl)cc3)cc2)cc1)c1ccc(Cl)cc1	DU-145 prostate	> 100 µM
c1cc(-c2ccsc2-c2ccsc2)cs1	DU-145 prostate	> 100 µM
CN1CCN(CC(=O)Nc2cccc3ccccc23)CC1	DU-145 prostate	> 100 µM
CCC1=C(c2ccc(OC)cc2)CC[C@@]2(CCNC2=O)[C@@H]1C	DU-145 prostate	> 100 µM
CC(C)c1cc(C(F)(F)F)nc(NNc2nc(C(C)C)cc(C(F)(F)F)n2)n1	DU-145 prostate	> 100 µM
